- ASSAYED TARGET: D(1A) dopamine receptor (Homo sapiens)
- ASSAY OVERVIEW: D1 CRE-luciferase signal change, two-sided – cell-based, HEK293 D1, dopamine EC30, D1 allosteric modulator project, primary screen (AID 641)
- CONDITION NOTES: dopamine EC30 potentiation, at 10 µM, actives deviate in either direction
About 3,400 (5.9%) of roughly 58,000 compounds were called active.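 The calls were made as follows: active = luminescence count or its row- and column-corrected plate score outside the 99.7% band of the plate's sample wells, on either side; inactive = the rest.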 Only a selection was taken, and actives are over-represented in it overall.
Answer with one of the outcomes 1 = active, -1 = inactive

Use these answered entries as a reference point.
Just curious, what result did `Cc1cc2cc(CNC(=O)c3ccc(S(=O)(=O)N4CCOCC4)cc3)ccc2[nH]1` get here?
-1

Now the same for `CCNc1nc(NCC)nc(N(C)n2cnnc2)n1`
1

Please answer likewise for `COc1ccccc1Oc1ccc(S(=O)(=O)Nc2cccnc2)cc1`
-1

Repeat with `CC(C)CNS(=O)(=O)c1ccc(OCC(=O)Nc2ccc3c(c2)OCO3)c(Cl)c1`
-1

Do the same for `COC(=O)c1ccc(CSc2nc3ccccc3c(=O)n2-c2cccc(OC)c2)o1` please
-1

Note, next up: `O=C(Nc1nncs1)c1ccccc1NS(=O)(=O)c1cccs1`
-1

Proceed to `CCCCNc1nc2ccccc2nc1NS(=O)(=O)c1cccs1`
1

Do the same for `O/N=C(\c1ccc2c(c1)OCCO2)C1CCCCC1` please
1

One more compound: `COc1ccc(N2CCN(CCNC(=O)c3nnc(Cc4c(F)cccc4Cl)o3)CC2)cc1`
-1

Moving on to the next compound: `Cc1ccccc1OCC(=O)Nc1ccc(N2CCN(C(=O)C(C)C)CC2)c(Cl)c1`
-1

Here is another compound to look at.
What did this assay record as the result for `Cc1cc(Nc2ccc(Br)cc2F)n2ncnc2n1` ?
-1

###

- ASSAYED TARGET: D(1A) dopamine receptor (Homo sapiens) (UniProt P21728)
- Sequence (P21728 whole entry, looked up): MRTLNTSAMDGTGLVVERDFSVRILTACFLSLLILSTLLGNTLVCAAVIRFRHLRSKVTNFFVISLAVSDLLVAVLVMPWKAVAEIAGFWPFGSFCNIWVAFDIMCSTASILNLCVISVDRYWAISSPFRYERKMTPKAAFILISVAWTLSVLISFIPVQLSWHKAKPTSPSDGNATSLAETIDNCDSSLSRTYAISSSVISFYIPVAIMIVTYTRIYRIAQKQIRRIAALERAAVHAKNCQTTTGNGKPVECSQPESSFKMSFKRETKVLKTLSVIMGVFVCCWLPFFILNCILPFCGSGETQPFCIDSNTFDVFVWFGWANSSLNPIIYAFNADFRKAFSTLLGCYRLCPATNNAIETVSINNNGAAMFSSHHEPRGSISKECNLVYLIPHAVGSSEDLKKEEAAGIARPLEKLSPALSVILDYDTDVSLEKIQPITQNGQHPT
- ASSAY OVERVIEW: D1 CRE-luciferase signal change, two-sided – cell-based, HEK293 D1, dopamine EC30, D1 allosteric modulator project, primary screen (AID 641)
- CONDITION NOTES: dopamine EC30 potentiation, at 10 µM, actives deviate in either direction
About 3,400 (5.9%) of roughly 58,000 compounds were called active.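 How the source made its calls: active means luminescence count or its row- and column-corrected plate score outside the 99.7% band of the plate's sample wells, on either side; inactive means the rest.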 The full list was thinned out, with actives kept by preference.
The categories you may choose from are active, inactive

The examples below pair each entry with its known result.
Can you look up the reported call for Cc1ccc(C(c2nnnn2C(C)(C)C)N2CCc3ccccc3C2)cc1 (configuration not stated) for me?
active

Now the same for CCC(C)(C)n1nnnc1C(c1ccccc1OC)N1CCSCC1 (configuration not stated)
inactive

Follow-up entry: `Cc1sc2c(c1C)c(=O)n(-c1ccccc1)c1nncn21`
inactive

With those in mind, consider the next compound.
What classification did `O=C(CN1CCOCC1)Nc1c(-c2ccccc2)c2cc(Br)ccc2[nH]c1=O` end up with in this test?
inactive

###

Give B-score for every item shown.
- ASSAYED TARGET: D(1A) dopamine receptor (Homo sapiens)
- ASSAY OVERVIEW: D1 CRE-luciferase signal change, two-sided – cell-based, HEK293 D1, dopamine EC30, D1 allosteric modulator project, primary screen (AID 641)
- CONDITION NOTES: dopamine EC30 potentiation, at 10 µM, actives deviate in either direction
About 3,400 (5.9%) of roughly 58,000 compounds were called active. For the sample, actives were picked, then their nearest neighbours and some compounds at random.
Give bare numbers.

Give one value of B-score per listed molecule.
1. Cc1ccc(-n2ncc3c(N4CCN(c5ccc(F)cc5)CC4)ncnc32)c(C)c1
2. Cn1c(/C(C#N)=C2/CCCCCN2)nc2ccccc21

-2.95
11.4
